In this section we review reported normalized growth rate inhibition value values for a set of compounds.
# Test system: U2OS
# Protocol Details: normalized growth rate inhibition value (GR) relative to untreated cells (GR value (dimensionless, 1 = untreated growth)); higher = less growth inhibition
# Particulars: 1 µM; 72 h
Reported Endpoint: normalized growth rate inhibition value

INSERT INTO results (compound, reported_endpoint, reported_result) VALUES
  ('CC1(C)CCC(c2ccc(Cl)cc2)=C(CN2CCN(c3ccc(C(=O)NS(=O)(=O)c4ccc(N[C@H](CCN5CCOCC5)CSc5ccccc5)c(S(=O)(=O)C(F)(F)F)c4)cc3)CC2)C1 [Navitoclax]', 'normalized growth rate inhibition value', 0.95),
  ('COc1cc2c(Oc3ccc(NC(=O)C4(C(=O)Nc5ccc(F)cc5)CC4)cc3F)ccnc2cc1OCCCN1CCOCC1 [Foretinib]', 'normalized growth rate inhibition value', -0.199),
  ('CC1CCc2cc(F)cc3c(=O)c(C(=O)O)cn1c23 (centres undefined) [Flumequine]', 'normalized growth rate inhibition value', 0.907),
  ('CNC(=O)c1ccccc1Sc1ccc2c(/C=C/c3ccccn3)n[nH]c2c1 [Axitinib]', 'normalized growth rate inhibition value', 0.822);

----------
# Tested on: U2OS
# Protocol Details: fractional viability (live cells / total cells); higher = less cell death
# Particulars: 0.0317369 µM; 72 h
Each entry below lists one item and its recorded fractional viability value.
Reported Endpoint: fractional viability

INSERT INTO measurements (molecule, subject_of_test, reported_endpoint, reported_result) VALUES
  ('Cc1nc(-c2cn3c(n2)-c2ccc(-c4cnn(C(C)(C)C(N)=O)c4)cc2OCC3)n(C(C)C)n1 [Taselisib]', 'U2OS', 'fractional viability', 0.973),
  ('CCc1cncnc1N1CCN(Cc2nc3ccc(C(F)(F)F)cc3[nH]2)CC1', 'U2OS', 'fractional viability', 0.988),
  ('Nc1cc(C(F)(F)F)c(-c2cc(N3CCOCC3)nc(N3CCOCC3)n2)cn1 [Buparlisib]', 'U2OS', 'fractional viability', 0.986),
  ('NC(=O)Nc1cc(-c2cccc(F)c2)sc1C(=O)N[C@H]1CCCNC1 [AZD7762]', 'U2OS', 'fractional viability', 0.988),
  ('Cc1c(N)nc([C@H](CC(N)=O)NC[C@H](N)C(N)=O)nc1C(=O)N[C@H](C(=O)N[C@H](C)[C@@H](O)[C@H](C)C(=O)N[C@H](C(=O)NCCc1nc(-c2nc(C(=O)NCCC[S+](C)C)cs2)cs1)[C@@H](C)O)[C@@H](OC1OC(CO)C(O)C(O)C1OC1OC(CO)C(O)C(OC(N)=O)C1O)c1cnc[nH]1 (some centres not stated) [Bleomycin]', 'U2OS', 'fractional viability', 0.991),
  ('COc1cc2c(Oc3ccc4[nH]c(C)cc4c3F)ncnc2cc1OCCCN1CCCC1 [Cediranib]', 'U2OS', 'fractional viability', 0.988),
  ('CS(=O)(=O)N1CCN(Cc2cc3nc(-c4cccc5[nH]ncc45)nc(N4CCOCC4)c3s2)CC1 [Pictilisib]', 'U2OS', 'fractional viability', 0.985),
  ('CC(=O)O[C@@]12CO[C@@H]1C[C@H](O)[C@@]1(C)C(=O)[C@H](O)C3=C(C)[C@@H](OC(=O)[C@H](O)[C@@H](NC(=O)OC(C)(C)C)c4ccccc4)C[C@@](O)([C@@H](OC(=O)c4ccccc4)[C@H]21)C3(C)C [Docetaxel]', 'U2OS', 'fractional viability', 0.413),
  ('COc1cccc2c1C(=O)c1c(O)c3c(c(O)c1C2=O)C[C@@](O)(C(=O)CO)C[C@@H]3O[C@H]1C[C@H](N)[C@H](O)[C@H](C)O1 [Doxorubicin]', 'U2OS', 'fractional viability', 0.971),
  ('O=C(c1cc(Cc2n[nH]c(=O)c3ccccc23)ccc1F)N1CCN(C(=O)C2CC2)CC1 [Olaparib]', 'U2OS', 'fractional viability', 0.992),
  ('COc1cc2nccc(Oc3ccc(NC(=O)C4(C(=O)Nc5ccc(F)cc5)CC4)cc3)c2cc1OC [Cabozantinib]', 'U2OS', 'fractional viability', 0.981),
  ('COc1cc([C@@H]2c3cc4c(cc3[C@@H](O[C@@H]3O[C@@H]5CO[C@@H](C)O[C@H]5[C@H](O)[C@H]3O)[C@H]3COC(=O)[C@H]23)OCO4)cc(OC)c1O [Etoposide]', 'U2OS', 'fractional viability', 0.989),
  ('Cc1nn(C)c(COc2ccc(N3CCN(S(=O)(=O)N(C)C)CC3)cc2)c1-c1cccc2c(CCCOc3cccc4ccccc34)c(C(=O)O)n(CCN3CCOCC3)c12', 'U2OS', 'fractional viability', 0.991),
  ('Cc1nc(NC(=O)N2CCC[C@H]2C(N)=O)sc1-c1ccnc(C(C)(C)C(F)(F)F)c1 [Alpelisib]', 'U2OS', 'fractional viability', 0.985),
  ('CN1CCN(CCOc2cc(OC3CCOCC3)c3c(Nc4c(Cl)ccc5c4OCO5)ncnc3c2)CC1 [Saracatinib]', 'U2OS', 'fractional viability', 0.986),
  ('CC(C)NC[C@@H](C(=O)N1CCN(c2ncnc3c2[C@H](C)C[C@H]3O)CC1)c1ccc(Cl)cc1 [Ipatasertib]', 'U2OS', 'fractional viability', 0.983),
  ('CCN1CCN(Cc2ccc(Nc3ncc(F)c(-c4cc(F)c5nc(C)n(C(C)C)c5c4)n3)nc2)CC1 [Abemaciclib]', 'U2OS', 'fractional viability', 0.992),
  ('CO[C@H]1C[C@@H]2CC[C@@H](C)[C@@](O)(O2)C(=O)C(=O)N2CCCC[C@H]2C(=O)O[C@H]([C@H](C)C[C@@H]2CC[C@@H](OCCO)[C@H](OC)C2)CC(=O)[C@H](C)/C=C(\C)[C@@H](O)[C@@H](OC)C(=O)[C@H](C)C[C@H](C)/C=C/C=C/C=C/1C [Everolimus]', 'U2OS', 'fractional viability', 0.994),
  ('Cc1cc(Nc2ncc(Cl)c(Nc3ccccc3S(=O)(=O)C(C)C)n2)c(OC(C)C)cc1C1CCNCC1 [Ceritinib]', 'U2OS', 'fractional viability', 0.988),
  ('Cc1cc(C(C)Nc2ccccc2)c2nc(N3CCOCC3)cc(=O)n2c1 (configuration not stated) [TGX221]', 'U2OS', 'fractional viability', 0.986),
  ('O=C1NC(=O)[C@@H](c2cn3c4c(cccc24)CCC3)[C@@H]1c1c[nH]c2ccccc12 [Tivantinib]', 'U2OS', 'fractional viability', 0.988),
  ('CC[C@@]1(O)C(=O)OCc2c1cc1n(c2=O)Cc2cc3c(CN(C)C)c(O)ccc3nc2-1 [Topotecan]', 'U2OS', 'fractional viability', 0.94),
  ('CN(C)CC[C@H](CSc1ccccc1)Nc1ccc(S(=O)(=O)NC(=O)c2ccc(N3CCN(Cc4ccccc4-c4ccc(Cl)cc4)CC3)cc2)cc1[N+](=O)[O-] [ABT-737]', 'U2OS', 'fractional viability', 0.982),
  ('N.N.[Cl][Pt][Cl] [Cisplatin]', 'U2OS', 'fractional viability', 0.99),
  ('CC(C)[C@@H]1NC(=O)[C@H](C)OC(=O)[C@@H](C(C)C)NC(=O)[C@@H](C(C)C)OC(=O)[C@H](C(C)C)NC(=O)[C@H](C)OC(=O)[C@@H](C(C)C)NC(=O)[C@@H](C(C)C)OC(=O)[C@H](C(C)C)NC(=O)[C@H](C)OC(=O)[C@@H](C(C)C)NC(=O)[C@@H](C(C)C)OC1=O [Valinomycin]', 'U2OS', 'fractional viability', 0.933),
  ('Cc1nc(Nc2ncc(C(=O)Nc3c(C)cccc3Cl)s2)cc(N2CCN(CCO)CC2)n1 [Dasatinib]', 'U2OS', 'fractional viability', 0.974),
  ('O=C(CCCCCCC(=O)Nc1ccccc1)NO [Vorinostat]', 'U2OS', 'fractional viability', 0.985);

----------
# normalized growth rate inhibition value per record follows
# Tested on: U2OS
# Protocol Details: normalized growth rate inhibition value (GR) relative to untreated cells (GR value (dimensionless, 1 = untreated growth)); higher = less growth inhibition
# Particulars: 0.0317369 µM; 72 h
Reported Endpoint: normalized growth rate inhibition value

INSERT INTO measurements (compound, reported_endpoint, reported_result) VALUES
  ('CCc1cncnc1N1CCN(Cc2nc3ccc(C(F)(F)F)cc3[nH]2)CC1', 'normalized growth rate inhibition value', 1.02),
  ('O=C(c1cc(Cc2n[nH]c(=O)c3ccccc23)ccc1F)N1CCN(C(=O)C2CC2)CC1', 'normalized growth rate inhibition value', 1.02),
  ('COc1cc2nccc(Oc3ccc(NC(=O)C4(C(=O)Nc5ccc(F)cc5)CC4)cc3)c2cc1OC [Cabozantinib]', 'normalized growth rate inhibition value', 1.07),
  ('Cc1cc(C(C)Nc2ccccc2)c2nc(N3CCOCC3)cc(=O)n2c1 (stereo not given)', 'normalized growth rate inhibition value', 1.02),
  ('Cc1nc(NC(=O)N2CCC[C@H]2C(N)=O)sc1-c1ccnc(C(C)(C)C(F)(F)F)c1', 'normalized growth rate inhibition value', 0.903);

Numbers sourced from the supplement of paper PMC7394473.
